Tested on: SR
Experiment: NCI tumour cell line growth inhibition, 48 h
Calls of active or inactive are those of the source. Rule as the data show it: active = GI50 up to about 1.1 µM and inactive = higher.
Labels: Y (active), N (inactive)

1. CCNC(=S)N/N=C/c1cc(OC)ccc1O : N
2. O=C1c2cccc3cc([N+](=O)[O-])cc(c23)C(=O)N1c1ccc(OCCN2CCCC2)cc1 : N
3. C[C@H]1C(=O)CC[C@]2(C)CCC(C(C)(C)O)CC12O (stereo not given in full) : N
4. CCCCc1c2c(c(C)c3c1C(=O)OC3)Oc1ccccc1O2 : Y
5. COc1ccc(C(O)/C(=C/n2ccnc2)c2ccccc2)cc1OC (stereo not given) : N
6. CCCCN1CN2C(=O)C(C(=O)OCC)C(=O)c3sc4nc(SC)nc1c4c32 (stereo not given) : N
7. CC(O)C1(O)C(O)CC(OC2c3cc4c(c(O)c3[C@@H]3C[C@@]2(C)OC32C=c3cc[nH]c3=N2)C(=O)c2cccc(O)c2C4=O)OC1C (stereo not given in full) : Y
8. COc1cc(/C=C/C2=NN(c3cccc(S(=O)(=O)O)c3)C3(C2)SCC(=O)N3c2nc3ccccc3s2)cc(OC)c1OC (stereo not given) : N
9. CCOC(=O)c1ccc(C)c(/N=N/N(C)C)c1 : N
10. CC(=O)OC1CC[C@@]2(C)C(CC[C@]3(C)C2CC=C2[C@@H]4C(C)[C@H](C)CCC4(C)CCC23C)[C@@]1(C)C(=O)O (stereo not given in full) : N
11. COC(=O)N/N=C(\C(=O)Nc1cccc([N+](=O)[O-])c1)c1nc2ccc([N+](=O)[O-])cc2nc1O : N
12. O=c1[nH]c(=O)n(C2OC(CO)C(O)C2O)cc1OCC(F)(F)F (stereo not given) : N
13. O=[N+]([O-])c1cnn(C2=CNc3ccccc3N=C2)c1 : N
14. CC(O)C(O)C(O)C(/C=N\Nc1ccccc1)=N/Nc1ccccc1 (stereo not given) : N
15. Cc1ccc(/C=C/C(=O)c2cccc3ccccc23)cc1 : N
16. CC(C)c1cc(Cl)nc(Cl)n1 : N
17. C[N+](C)(C)CCCCCc1c2nc(c(CCCCC[N+](C)(C)C)c3ccc([nH]3)c(CCCCC[N+](C)(C)C)c3nc(c(CCCCC[N+](C)(C)C)c4ccc1[nH]4)C=C3)C=C2 : N
18. NCCCc1ccc2oc3ccccc3c2c1 : N
19. Nc1csc(-c2scc3c2OCCO3)c1N : N
20. CCc1ccc2c(c1)/C(=C1/Nc3ccccc3/C1=N/O)C(=O)N2 : N
